System: Human HCT116 colon carcinoma cells
assay: HCT116 Colon Carcinoma Cell Growth Inhibition
Format: cell-based
measurement-context: 72 hr exposure, WST-1 growth fraction
quantity-measured: IC50 (µM)
Express it in µM; write the number only.

input: Param request: IC50 | system Human HCT116 colon carcinoma cells | item O=C(NS(=O)(=O)c1ccc2c(c1)OCCO2)c1ccc(Cl)cc1Cl
output: 4.1

Ref: patent US7282595B2
